Provenance of the data: the supplement of paper PMC7125110

This section presents variants with their documented self-cleavage kobs at 10000 uM GlcN6P values.
B1: glmS ribozyme (parent)
chain: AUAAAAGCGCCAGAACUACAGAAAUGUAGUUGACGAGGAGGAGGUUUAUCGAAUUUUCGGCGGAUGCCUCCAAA

Variants of: B1
Assay: self-cleavage kobs at 10000 uM GlcN6P; higher = faster cleavage; RNA array
Details: with glucosamine-6-phosphate
Variants at the floor of the assay were thinned out.

Mutation list	self-cleavage kobs at 10000 uM GlcN6P
A15C C61U U69G	< 1e-05 s⁻¹
C34U G40U	< 1e-05 s⁻¹
U55C C61G	< 1e-05 s⁻¹
C8U A15C G32U A36U A39C A48U	< 1e-05 s⁻¹
G7A G13U A14C A15U G35A U55C A64G C71A	< 1e-05 s⁻¹
G13U G44U U45G C58A C71G	< 1e-05 s⁻¹
A15G C61G G62C	< 1e-05 s⁻¹
A33G C71A	< 1e-05 s⁻¹
G59C G66A	< 1e-05 s⁻¹
C8G G38A	< 1e-05 s⁻¹
C10G G29C G40A	< 1e-05 s⁻¹
G37C G38A	< 1e-05 s⁻¹
C8A C10U U31A	< 1e-05 s⁻¹
G9C C10U A36U A48U C71G	< 1e-05 s⁻¹
C8G G43U G51U U54G	< 1e-05 s⁻¹
G7U A12G	< 1e-05 s⁻¹
G37C U45A	0.000109 s⁻¹
G32A G41U C50U U56A G62U	< 1e-05 s⁻¹
C8G G51U U69G	0.00122 s⁻¹
G62A G66U	< 1e-05 s⁻¹
G29U U49G	8.25e-05 s⁻¹
U30A A42G U46A	0.000409 s⁻¹
A12U U47A	0.0554 s⁻¹
G40C A42C	< 1e-05 s⁻¹
A6U C67A	7.43e-05 s⁻¹
G29A U45A	0.00857 s⁻¹
G13A A52G	6.07e-05 s⁻¹
A15C C16A G37U G40U G62U C70A	< 1e-05 s⁻¹
A12U A42G U47A C68U	0.00634 s⁻¹
